I'd be grateful if you could share measured shrunken log2 fold change for these entries.
- Test system: Escherichia coli TOP10;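 further: peptides expressed intracellularly from a pBAD plasmid library in pooled LB shake-flask culture, induced with 0.3% L-arabinose, DNA abundance read by NGS, three biological replicates, DESeq2 with apeglm shrinkage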
- Protocol Text: shrunken log2 fold change of peptide-encoding DNA abundance (4.5 h post-induction vs induction); higher = less antimicrobial activity (less host growth inhibition)
- Reported Conditions: time post-induction: 4.5 h; library: site-saturation at positions 5, 18, 19, 20

A selection of reference data follows.
             sequence_text  endpoint_result
0  RRIRSRPPRLPRPRPRPEAKPRP            0.401
1  RRIRHRPPRLPRPRPRPTYDPRP          -0.0607
2  RRIRRRPPRLPRPRPRPNIFPRP          -0.0516
3  RRIRMRPPRLPRPRPRPWGYPRP            0.101
4  RRIRERPPRLPRPRPRPNYAPRP          -0.0181

Give shrunken log2 fold change for all sequences that follow.
1. RRIRQRPPRLPRPRPRPYVCPRP
2. RRIRYRPPRLPRPRPRPDCMPRP
3. RRIRVRPPRLPRPRPRPWHSPRP
4. RRIRMRPPRLPRPRPRPVELPRP

RESULT:
1: -0.0671; 2: 0.0186; 3: -0.435; 4: -0.281
